The measured values listed here are drawn from paper PMC10304880.

melting point values for the compounds below.

melting point reported for this compound O=c1c2ccc(Br)cc2nc2n1-c1cc(Br)ccc1C2=NO : > 300 °C (dec.)

melting point reported for this compound Cc1ccc2c(c1)-n1c(nc3ccccc3c1=O)C2=NO : > 225 °C (dec.)

melting point reported for this compound O=c1c2cc(C(F)(F)F)ccc2nc2n1-c1ccccc1C2=NO : > 225 °C (dec.)

melting point reported for this compound O=c1c2cc(Br)ccc2nc2n1-c1ccc([N+](=O)[O-])cc1C2=NO : > 225 °C (dec.)

melting point reported for this compound O=c1c2ccc(F)cc2nc2n1-c1ccccc1C2=NO : > 225 °C (dec.)

melting point reported for this compound CCc1ccc2c(c1)C(=NO)c1nc3ccccc3c(=O)n1-2 : > 225 °C (dec.)

melting point reported for this compound O=c1c2ccccc2nc2n1-c1ccc(Br)cc1C2=NO : > 225 °C (dec.)

melting point reported for this compound COc1ccc2c(c1)C(=NO)c1nc3ccc(OC)cc3c(=O)n1-2 : 262 to 263 °C

Others:
melting point reported for this compound O=c1c2ccc(Br)cc2nc2n1-c1ccccc1C2=NO : > 225 °C (dec.)

melting point reported for this compound O=c1c2cc([N+](=O)[O-])ccc2nc2n1-c1ccccc1C2=NO : > 225 °C (dec.)

melting point reported for this compound O=c1c2cc(Br)ccc2nc2n1-c1ccccc1C2=NO : > 225 °C (dec.)

melting point reported for this compound COc1ccc2c(c1)-n1c(nc3cc(OC)ccc3c1=O)C2=NO : 292 to 293 °C

melting point reported for this compound Cc1cccc2c1C(=NO)c1nc3ccccc3c(=O)n1-2 : > 225 °C (dec.)

melting point reported for this compound COc1ccc2c(c1)C(=NO)c1nc3ccccc3c(=O)n1-2 : > 225 °C (dec.)

melting point reported for this compound Cc1cccc2c1C(=NO)c1nc3cccc(C)c3c(=O)n1-2 : 190 to 191 °C

melting point reported for this compound Cc1ccc2c(c1)C(=NO)c1nc3ccc(C)cc3c(=O)n1-2 : > 300 °C (dec.)

melting point reported for this compound O=c1c2ccccc2nc2n1-c1ccc(-c3ccccc3)cc1C2=NO : > 225 °C (dec.)

melting point reported for this compound O=c1c2ccc([N+](=O)[O-])cc2nc2n1-c1ccccc1C2=NO : > 225 °C (dec.)

melting point reported for this compound O=c1c2cc(Br)ccc2nc2n1-c1ccc(Br)cc1C2=NO : 250 to 251 °C

melting point reported for this compound COC(=O)ON=C1c2ccccc2-n2c1nc1ccccc1c2=O : 197 °C

---

- System: NF-κB/AP-1 transcriptional activity in THP-1Blue cells
- Assay details: LPS-induced NF-κB/AP-1 alkaline phosphatase reporter assay in THP-1Blue cells
- Type: cell-based
- Settings: Homo sapiens, 30 min pretreatment, 250 ng/mL LPS, 24 h; read-out: AP Production in THP–1Blue IC50
Property: IC50 (µM)

Consider the following illustrative entries.
IC50 reported for this compound CCc1ccc2c(c1)C(=NO)c1nc3ccccc3c(=O)n1-2 [Compound 4c] : 0.7

IC50 reported for this compound O=C(ON=C1c2ccccc2-n2c1nc1ccccc1c2=O)c1ccc2c(c1)OCO2 [Compound 5e] : 3.5

IC50 reported for this compound COC(=O)ON=C1c2ccccc2-n2c1nc1ccccc1c2=O [Compound 5c] : 8.1

1. COc1ccc2c(c1)C(=NO)c1nc3ccccc3c(=O)n1-2 [Compound 4d]
2. O=c1c2ccc([N+](=O)[O-])cc2nc2n1-c1ccccc1C2=NO [Compound 4m]
Ask | Dear colleague, could you let me know whether 1 or 2 has the lower recorded IC50? Thanks. // caller expects the label of the chosen entry
Reply | 1
(1: 0.8 µM, 2: 8.3 µM)

1. Cc1ccc2c(c1)C(=NO)c1nc3ccc(C)cc3c(=O)n1-2 [Compound 4o]
2. C#CCOC(=O)ON=C1c2ccccc2-n2c1nc1ccccc1c2=O [Compound 5d]
Ask | Dear colleague, could you let me know whether 1 or 2 has the lower recorded IC50? Thanks. // caller expects the label of the chosen entry
Reply | 2

I. O=c1c2ccccc2nc2n1-c1ccccc1C2=NO [TRYP-Ox, tryptanthrin-6-oxime, reference compound]
II. O=c1c2ccccc2nc2n1-c1ccc(Br)cc1C2=NO [Compound 4b]
Ask | Pick the one with the larger IC50: I vs II // caller expects the label of the chosen entry
Reply | I

---

- Subject of test: JNK3 (Homo sapiens, UniProt P53779)
- Construct: purchased Eurofins Pharma Discovery (KINOMEscan service)
- Sequence (P53779 whole entry): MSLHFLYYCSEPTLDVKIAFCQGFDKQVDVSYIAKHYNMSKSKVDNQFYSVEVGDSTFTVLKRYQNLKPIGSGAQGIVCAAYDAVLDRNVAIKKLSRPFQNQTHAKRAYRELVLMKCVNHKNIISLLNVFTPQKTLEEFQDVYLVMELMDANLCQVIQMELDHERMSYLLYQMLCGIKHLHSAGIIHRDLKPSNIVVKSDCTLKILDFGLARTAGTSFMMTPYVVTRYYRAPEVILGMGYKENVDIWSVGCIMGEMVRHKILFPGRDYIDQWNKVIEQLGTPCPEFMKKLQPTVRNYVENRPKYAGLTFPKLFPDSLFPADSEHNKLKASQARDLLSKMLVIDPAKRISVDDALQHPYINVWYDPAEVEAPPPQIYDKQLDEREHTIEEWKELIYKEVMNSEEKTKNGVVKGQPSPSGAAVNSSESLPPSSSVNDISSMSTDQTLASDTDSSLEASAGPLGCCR
- Assay details: KINOMEscan JNK3 binding (Kd)
- Settings: ratio of Kd values
Property: Selectivity Index JNK2/JNK3

Selectivity Index JNK2/JNK3 reported for this molecule CCc1ccc2c(c1)C(=NO)c1nc3ccccc3c(=O)n1-2 : 2.7

I. Cc1ccc2c(c1)-n1c(nc3ccccc3c1=O)C2=NO
II. C#CCOC(=O)ON=C1c2ccccc2-n2c1nc1ccccc1c2=O
III. O=c1c2ccccc2nc2n1-c1ccc(Br)cc1C2=NO
Ask | Arrange the 3 molecules from largest to smallest Selectivity Index JNK2/JNK3. Answer by listing the labels in the order asked for.
Reply | III, II, I

---

Property: melting point (°C)

melting point reported for this compound C#CCOC(=O)ON=C1c2ccccc2-n2c1nc1ccccc1c2=O [Compound 5d] : 210

melting point reported for this compound CCOC(=O)CON=C1c2ccccc2-n2c1nc1ccccc1c2=O [Compound 5a] : 218

melting point reported for this compound CCOC(=O)C(ON=C1c2ccccc2-n2c1nc1ccccc1c2=O)C(=O)OCC [Compound 5b] : 211

---

Selectivity Index JNK1/JNK3 values for the compounds below.
- Subject of test: JNK3 (Homo sapiens, UniProt P53779)
- Construct: purchased Eurofins Pharma Discovery (KINOMEscan service)
- Assay details: KINOMEscan JNK3 binding (Kd)
- Settings: ratio of Kd values

Observed Selectivity Index JNK1/JNK3 on JNK3 (Homo sapiens, UniProt P53779), entry O=c1c2cc(C(F)(F)F)ccc2nc2n1-c1ccccc1C2=NO , equals >3

Observed Selectivity Index JNK1/JNK3 on JNK3 (Homo sapiens, UniProt P53779), entry O=c1c2cc([N+](=O)[O-])ccc2nc2n1-c1ccccc1C2=NO , equals >3.9

Observed Selectivity Index JNK1/JNK3 on JNK3 (Homo sapiens, UniProt P53779), entry COc1ccc2c(c1)C(=NO)c1nc3ccccc3c(=O)n1-2 , equals >100

---

- Subject of test: JNK1 (Homo sapiens)
- Construct: purchased Eurofins Pharma Discovery (KINOMEscan service)
- Sequence (P45983 whole entry): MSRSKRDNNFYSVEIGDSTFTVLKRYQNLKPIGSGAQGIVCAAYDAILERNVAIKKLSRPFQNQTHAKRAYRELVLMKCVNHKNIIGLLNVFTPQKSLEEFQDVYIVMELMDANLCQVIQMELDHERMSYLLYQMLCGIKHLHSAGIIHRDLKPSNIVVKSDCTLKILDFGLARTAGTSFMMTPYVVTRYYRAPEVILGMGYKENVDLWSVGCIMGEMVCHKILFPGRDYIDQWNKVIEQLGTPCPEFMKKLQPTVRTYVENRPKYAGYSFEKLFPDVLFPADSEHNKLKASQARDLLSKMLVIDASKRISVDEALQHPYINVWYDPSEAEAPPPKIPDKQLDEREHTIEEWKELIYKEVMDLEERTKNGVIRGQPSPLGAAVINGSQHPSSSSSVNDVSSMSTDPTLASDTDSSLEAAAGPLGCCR
- Assay details: KINOMEscan JNK1 binding (Kd)
- Settings: 12-point series, max 33 μM, duplicate
pKd: −log10 of the molar value.
Property: pKd

I. O=c1c2cc(Br)ccc2nc2n1-c1ccccc1C2=NO
II. COC(=O)ON=C1c2ccccc2-n2c1nc1ccccc1c2=O
Ask | Pick the one with the larger pKd: I vs II // caller expects the label of the chosen entry
Reply | II
(II: 5.77, I: 5.39)

---

- Test system: NF-κB/AP-1 transcriptional activity in THP-1Blue cells
- Assay details: LPS-induced NF-κB/AP-1 alkaline phosphatase reporter assay in THP-1Blue cells
- Format: cell-based
- Settings: Homo sapiens, 30 min pretreatment, 250 ng/mL LPS, 24 h; read-out: AP Production in THP–1Blue IC50
pIC50: −log10 of the molar value.
pIC50 values for the molecules below.

Consider the following illustrative entries.
pIC50 reported for this molecule O=c1c2c(Br)cccc2nc2n1-c1cccc(Br)c1C2=NO : < 4.30

pIC50 reported for this molecule Cc1cccc2c1C(=NO)c1nc3cccc(C)c3c(=O)n1-2 : < 4.30

pIC50 reported for this molecule CCOC(=O)CON=C1c2ccccc2-n2c1nc1ccccc1c2=O : < 4.30

pIC50 reported for this molecule COc1ccc2c(c1)C(=NO)c1nc3ccc(OC)cc3c(=O)n1-2 : 5.34

pIC50 reported for this molecule O=c1c2ccc(F)cc2nc2n1-c1ccccc1C2=NO : 5.30

pIC50 reported for this molecule O=c1c2ccccc2nc2n1-c1ccc(-c3ccccc3)cc1C2=NO : 5.80

pIC50 reported for this molecule CCOC(=O)C(ON=C1c2ccccc2-n2c1nc1ccccc1c2=O)C(=O)OCC : < 4.30

Please find the next molecule below.
pIC50 reported for this molecule Cc1cccc2c1C(=NO)c1nc3ccccc3c(=O)n1-2 : < 4.30

---

- Subject of test: JNK3 (Homo sapiens, UniProt P53779)
- Construct: purchased Eurofins Pharma Discovery (KINOMEscan service)
- Assay details: KINOMEscan JNK3 binding (Kd)
- Settings: ratio of Kd values
Property: Selectivity Index JNK2/JNK3

Consider the following illustrative entries.
Selectivity Index JNK2/JNK3 reported for this molecule O=c1c2ccccc2nc2n1-c1ccc(-c3ccccc3)cc1C2=NO : >100

Selectivity Index JNK2/JNK3 reported for this molecule O=c1c2ccc(Br)cc2nc2n1-c1ccccc1C2=NO : >6

Selectivity Index JNK2/JNK3 reported for this molecule COc1ccc2c(c1)C(=NO)c1nc3ccccc3c(=O)n1-2 : >100

Others:
Selectivity Index JNK2/JNK3 reported for this molecule O=c1c2cc(C(F)(F)F)ccc2nc2n1-c1ccccc1C2=NO : >3
